Tested on: PANC-1
Method Notes: SRB colorimetric assay of cell growth and viability, PANC-1
Type: cell-based, human
Conditions: 48 hours exposure; read-out: LC50 PANC-1
Where a SMILES comes first, the peptide text is derived from it. Bridges are numbered along the chain shown (N, C = ends). [ ]: non-standard residue; d: D form. The star is where a group is joined. d(aIle) = CC[C@H](C)[C@@H](N)C(=O)O; d(aThr) = C[C@@H](O)[C@@H](N)C(=O)O; Hexanoyl(5-Me) = CC(C)CCCC(=O)*; dCha = N[C@H](CC1CCCCC1)C(=O)O; Orn = NCCC[C@H](N)C(=O)O; Dhb = C/C=C(\N)C(=O)O
This listing pairs molecules with measured CC50.
Give just the number in µM; leave the unit off.

Below, each entry is followed by its recorded CC50 result.
C/C=C1\NC(=O)[C@H](Cc2ccccc2)NC(=O)[C@@H](C(C)C)NC(=O)[C@@H]([C@@H](C)CC)NC(=O)[C@H](NC(=O)[C@H](NC(=O)[C@H](CCCN)NC(=O)[C@H]2CCCN2C(=O)[C@H](NC(=O)[C@@H](NC(=O)[C@@H](NC(=O)[C@H](NC(=O)Cc2ccc(C(F)(F)F)cc2)C(C)C)[C@@H](C)O)C(C)C)C(C)C)[C@@H](C)CC)[C@@H](C)OC(=O)[C@H](C(C)C)NC1=O [Compound 25, [p-CF3PhAc^14]-KF]    5.96
C/C=C1\NC(=O)[C@H](Cc2ccccc2)NC(=O)[C@@H](CC2CCCCC2)NC(=O)[C@@H](CC2CCCCC2)NC(=O)[C@H](NC(=O)[C@@H](CC2CCCCC2)NC(=O)[C@H](CCCN)NC(=O)[C@H]2CCCN2C(=O)[C@H](NC(=O)[C@@H](NC(=O)[C@@H](NC(=O)[C@H](NC(=O)CCCC(C)C)C(C)C)[C@@H](C)O)C(C)C)C(C)C)[C@@H](C)OC(=O)[C@H](C(C)C)NC1=O [Compound 11, [D-Cha^4, D-Cha^5, D-Cha^7]-KF] ({Hexanoyl(5-Me)}-[dV]TV[dV][dP][Orn][dCha][d(aThr)][dCha][dCha]F[Dhb]V; ester 8-C)    5.25

What measured CC50 goes with C/C=C1\NC(=O)[C@H](Cc2ccccc2)NC(=O)[C@@H](C(C)C)NC(=O)[C@@H]([C@@H](C)CC)NC(=O)[C@H](NC(=O)[C@H](NC(=O)[C@H](CCCN)NC(=O)[C@H]2CCCN2C(=O)[C@H](NC(=O)[C@@H](NC(=O)CNC(=O)CCCC(C)C)C(C)C)C(C)C)[C@@H](C)CC)[C@@H](C)OC(=O)[C@H](C(C)C)NC1=O [Compound 53, [Gly^12, noD-Val^13]-KF] ({Hexanoyl(5-Me)}-GV[dV][dP][Orn][d(aIle)][d(aThr)][d(aIle)][dV]F[Dhb]V; ester 7-C) ?
7.49

====

System: LoVo
Method Notes: SRB colorimetric assay of cell growth and viability, LoVo
Type: cell-based, human
Conditions: 48 hours exposure, SRB; read-out: LC50 LOVO
Assay Readout: CC50 (nM)
Return type: number; implicit unit nM.

Dear colleague, I am looking for the recorded CC50 of the following compound: C/C=C1\NC(=O)[C@H](Cc2ccccc2)NC(=O)[C@@H](C(C)C)NC(=O)[C@@H]([C@@H](C)CC)NC(=O)[C@H](NC(=O)[C@H](NC(=O)[C@H](CCCN)NC(=O)[C@H]2CCCN2C(=O)[C@H](NC(=O)[C@@H](NC(=O)[C@@H](NC(=O)[C@H](NC(=O)CC[C@@H](C)CC)C(C)C)[C@@H](C)OC(=O)C(F)(F)F)C(C)C)C(C)C)[C@@H](C)CC)[C@@H](C)OC(=O)[C@H](C(C)C)NC1=O
632

====

Tested on: SK-BR-3
Method Notes: SRB colorimetric assay of cell growth and viability, SK-BR-3
Type: cell-based, human
Conditions: 48 hours exposure
Method: The finality of this assay is to interrupt the growth of a “in vitro” tumor cell culture by means a continued exhibition of the cells to the sample to be testing. […] Cells are seeded in 96 well microtiter plates, at 5×10^3 cells per well in aliquots of 195 μL medium, and they are allowed to attach to the plate surface by growing in drug free medium for 18 hours. […] Optical densities are read on a automated spectrophotometric plate reader at a single wavelength of 490 nm. […]
Where a SMILES comes first, the peptide text is derived from it. Bridges are numbered along the chain shown (N, C = ends). [ ]: non-standard residue; d: D form. The star is where a group is joined. d(aIle) = CC[C@H](C)[C@@H](N)C(=O)O; d(aThr) = C[C@@H](O)[C@@H](N)C(=O)O; Hexanoyl(5-Me) = CC(C)CCCC(=O)*; Orn = NCCC[C@H](N)C(=O)O; Dhb = C/C=C(\N)C(=O)O
Assay Readout: LC50

C/C=C1\NC(=O)[C@H](Cc2ccccc2)NC(=O)[C@@H](C(C)C)NC(=O)[C@@H]([C@@H](C)CC)NC(=O)[C@H](NC(=O)[C@H](NC(=O)[C@H](CCCCN)NC(=O)[C@H]2CCCN2C(=O)[C@H](NC(=O)[C@@H](NC(=O)[C@@H](NC(=O)[C@H](NC(=O)CCCC(C)C)C(C)C)[C@@H](C)O)C(C)C)C(C)C)[C@@H](C)CC)[C@@H](C)OC(=O)[C@H](C(C)C)NC1=O [Compound 5, [Lys^8]-KF]    0.554 µM

Turning now to a further record.
Param item = C/C=C1\NC(=O)[C@H](Cc2ccccc2)NC(=O)[C@@H](C(C)C)NC(=O)[C@@H]([C@@H](C)CC)NC(=O)[C@H](NC(=O)[C@H](NC(=O)[C@H](CCCN)NC(=O)[C@H]2CCCN2C(=O)[C@H](NC(=O)[C@H](C)NC(=O)[C@@H](NC(=O)[C@H](NC(=O)CCCC(C)C)C(C)C)[C@@H](C)O)C(C)C)[C@@H](C)CC)[C@@H](C)OC(=O)[C@H](C(C)C)NC1=O [Compound 44, [Ala^11]-KF] ({Hexanoyl(5-Me)}-[dV]TA[dV][dP][Orn][d(aIle)][d(aThr)][d(aIle)][dV]F[Dhb]V; ester 8-C) ; retrieve measured LC50.
5.3 µM

====

System: HT-29
Method Notes: SRB colorimetric assay of cell growth and viability, HT-29
Assay type: cell-based, human
Conditions: 48 hours exposure
Method: The finality of this assay is to interrupt the growth of a “in vitro” tumor cell culture by means a continued exhibition of the cells to the sample to be testing. […] Cells are seeded in 96 well microtiter plates, at 5×10^3 cells per well in aliquots of 195 μL medium, and they are allowed to attach to the plate surface by growing in drug free medium for 18 hours. […] Optical densities are read on a automated spectrophotometric plate reader at a single wavelength of 490 nm. […]
TGI HT-29 listing for selected molecules.
// units = Molar; emit number, no label

Worked cases, answers included:
C/C=C1\NC(=O)[C@H](Cc2ccccc2)NC(=O)[C@@H](C(C)C)NC(=O)[C@@H]([C@@H](C)CC)NC(=O)[C@H](NC(=O)[C@H](NC(=O)[C@H](CCCN)NC(=O)[C@H]2CCCN2C(=O)[C@H](NC(=O)[C@@H](NC(=O)[C@@H](NC(=O)[C@H](NC(=O)c2ccccc2)C(C)C)[C@@H](C)O)C(C)C)C(C)C)[C@@H](C)CC)[C@@H](C)OC(=O)[C@H](C(C)C)NC1=O [Compound 20, [Bza^14]-KF]    1.64E−06
C/C=C1\NC(=O)[C@H](Cc2ccccc2)NC(=O)[C@@H](C(C)C)NC(=O)[C@@H]([C@@H](C)CC)NC(=O)[C@H](NC(=O)[C@H](NC(=O)[C@H](CCCN)NC(=O)[C@H]2CCCN2C(=O)[C@H](NC(=O)[C@@H](NC(=O)[C@@H](NC(=O)CNC(=O)CCCC(C)C)[C@@H](C)O)C(C)C)C(C)C)[C@@H](C)CC)[C@@H](C)OC(=O)[C@H](C(C)C)NC1=O [Compound 33, [Gly^13]-KF]    6.96E−06

Reported TGI HT-29 for HT-29, given C/C=C1\NC(=O)[C@H](Cc2ccccc2)NC(=O)[C@@H](C(C)C)NC(=O)[C@@H]([C@@H](C)CC)NC(=O)[C@H](NC(=O)[C@H](NC(=O)[C@H](CCCN)NC(=O)[C@H]2CCCN2C(=O)[C@H](NC(=O)[C@@H](NC(=O)[C@@H](NC(=O)[C@H](NC(=O)CC[C@H](C)CC)C(C)C)[C@@H](C)O)C(C)C)C(C)C)[C@@H](C)CC)[C@@H](C)OC(=O)[C@H](C(C)C)NC1=O [Compound 16, [(4R)-MeHex^14]-KF] ?
1.54E−06

Next up: C/C=C1\NC(=O)[C@H](Cc2ccccc2)NC(=O)[C@@H](C(C)C)NC(=O)[C@@H]([C@@H](C)CC)NC(=O)[C@H](NC(=O)[C@H](NC(=O)[C@H](CCCN)NC(=O)[C@H]2CCCN2C(=O)[C@H](NC(=O)[C@@H](NC(=O)[C@@H](NC(=O)[C@@H](C)NC(=O)CCCC(C)C)[C@@H](C)O)C(C)C)C(C)C)[C@@H](C)CC)[C@@H](C)OC(=O)[C@H](C(C)C)NC1=O [Compound 34, [D-Ala^13]-KF]
2.32E−06

Please answer likewise for C/C=C1\NC(=O)[C@H](Cc2ccccc2)NC(=O)[C@@H](C(C)C)NC(=O)[C@@H]([C@@H](C)CC)NC(=O)[C@H](NC(=O)[C@H](NC(=O)[C@H](CCCN)NC(=O)[C@H]2CCCN2C(=O)[C@H](NC(=O)[C@@H](NC(=O)[C@@H](NC(=O)[C@H](NC(=O)CCCNC(=N)N)C(C)C)[C@@H](C)O)C(C)C)C(C)C)[C@@H](C)CC)[C@@H](C)OC(=O)[C@H](C(C)C)NC1=O [Compound 29, [4-GuBut^14]-KF]
6.70E−06

Origin of the recorded values: patent US20070117743A1
